The origin of these recorded values is patent US12414952B2.

- Assayed Target: human A2b adenosine receptor (Homo sapiens (Human), UniProt P29275)
- Sequence (P29275 whole entry): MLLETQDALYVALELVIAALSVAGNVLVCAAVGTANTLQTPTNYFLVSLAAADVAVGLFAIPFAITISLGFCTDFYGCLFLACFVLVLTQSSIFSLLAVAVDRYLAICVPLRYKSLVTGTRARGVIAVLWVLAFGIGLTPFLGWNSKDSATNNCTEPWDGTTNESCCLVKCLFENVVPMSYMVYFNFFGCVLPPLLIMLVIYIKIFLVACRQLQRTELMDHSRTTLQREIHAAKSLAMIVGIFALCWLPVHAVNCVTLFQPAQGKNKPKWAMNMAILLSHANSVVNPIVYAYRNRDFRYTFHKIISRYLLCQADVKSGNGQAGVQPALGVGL
pIC50: −log10 of the molar value.
Test Readout: pIC50

Sample answers from the record:
{"columns": ["Compound", "Assayed Target", "pIC50"],
 "data": [
  ["Cc1c(-c2ncco2)nc(N)c2nc(Cc3ccc(C(C)(C)O)cn3)nn12 [Example 4.11]", "human A2b adenosine receptor (Homo sapiens (Human), UniProt P29275)", 7.18],
  ["Cc1c(-c2cccc(Cl)c2)nc(N)c2nc(Cc3ccccc3)nn12 [Example 3.23]", "human A2b adenosine receptor (Homo sapiens (Human), UniProt P29275)", 7.87],
  ["Cc1c(-c2cc(F)cc(F)c2)nc(N)c2nc(Cc3ccccc3)nn12 [Example 3.25]", "human A2b adenosine receptor (Homo sapiens (Human), UniProt P29275)", 7.70],
  ["Cc1c(-c2ncco2)nc(N)n2nc(CCN3CCc4c(nnn4C(C)C)C3)nc12 [Example 1.15]", "human A2b adenosine receptor (Homo sapiens (Human), UniProt P29275)", 6.40],
  ["Cc1c(-c2cc(F)c(F)cc2F)nc(N)c2nc(Cc3ccccc3)nn12 [Example 3.34]", "human A2b adenosine receptor (Homo sapiens (Human), UniProt P29275)", 7.02],
  ["Cc1c(-c2cccc(F)c2)nc(N)n2nc(CCN3CCc4c(nnn4C(C)C)C3)nc12 [Example 2.16]", "human A2b adenosine receptor (Homo sapiens (Human), UniProt P29275)", 7.13]
]}

P. Cc1c(-c2ncco2)nc(N)n2nc(CNCc3ccc(C(C)(C)O)cn3)nc12 [Example 11.3]
Q. CC(C)c1ncc2n1CCN(CCc1nc3cc(-c4cc(F)cc(F)c4)nc(N)n3n1)C2 [Example 2.14]
Lab note: check whether P or Q shows the higher recorded pIC50. API: response body contains the label of the selected item.
P

* * *

- Assayed Target: UniProtKB P29274
- Procedure Summary: A2a binding affinity using radioligand binding, Method (A)
- Recorded Conditions: Method (A): [3H]SCH58261 filtration binding
pIC50: −log10 of the molar value.
Test Readout: pIC50

{"columns": ["Compound String", "pIC50"],
 "data": [
  ["Cc1c(-c2ncco2)nc(N)n2nc(CNCc3cnn(CC(C)(C)O)c3)nc12", 7.82]
]}

a. COc1ncc(-c2nc(N)c3nc(Cc4ccccc4)nn3c2C)cc1Cl
b. Cc1cccnc1Cc1nc2c(N)nc(-c3ncco3)c(C)n2n1
c. Cc1c(-c2ncco2)nc(N)n2nc(CCN3CCc4c(cnn4C4CC(F)(F)C4)C3)nc12
d. Cc1ccc(-c2nc(N)c3nc(Cc4ccccc4)nn3c2C)cc1F
Arrange by pIC50, high to low. # respond with the labels, arranged in the requested order
c, b, a, d
(c: 9.22, b: 8.89, a: 7.96, d: 6.00)

* * *

- Assayed Target: human A2a adenosine receptor (Homo sapiens (Human))
- Sequence (P29274 whole entry): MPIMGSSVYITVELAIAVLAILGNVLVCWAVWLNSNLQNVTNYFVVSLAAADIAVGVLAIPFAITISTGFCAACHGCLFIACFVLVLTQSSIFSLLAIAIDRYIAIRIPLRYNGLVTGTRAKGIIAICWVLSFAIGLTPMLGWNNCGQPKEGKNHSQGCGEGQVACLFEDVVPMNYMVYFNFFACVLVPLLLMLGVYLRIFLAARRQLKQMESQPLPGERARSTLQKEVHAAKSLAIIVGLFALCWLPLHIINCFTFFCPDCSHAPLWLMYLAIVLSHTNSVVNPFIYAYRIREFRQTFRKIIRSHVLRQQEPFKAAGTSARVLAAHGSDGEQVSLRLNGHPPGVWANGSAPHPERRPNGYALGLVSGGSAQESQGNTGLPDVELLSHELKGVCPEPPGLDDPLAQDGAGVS
- Procedure Summary: A2a binding affinity using radioligand binding, Method (A)
- Recorded Conditions: Method (A): [3H]SCH58261 filtration binding
pIC50: −log10 of the molar value.
Test Readout: pIC50

{"columns": ["Molecule", "Assayed Target", "pIC50"],
 "data": [
  ["Cc1c(-c2ncco2)nc(N)n2nc(CCN3Cc4nnn(C(C)C)c4C(C)C3)nc12 (single isomer, unassigned) [Example 17.8-2]", "human A2a adenosine receptor (Homo sapiens (Human))", 8.64],
  ["Cc1nc2cc(-c3ncco3)nc(N)n2n1 [Example 1.9]", "human A2a adenosine receptor (Homo sapiens (Human))", 6.27],
  ["Cc1c(-c2ccc(Cl)cc2F)nc(N)c2nc(Cc3ccccc3)nn12 [Example 3.21]", "human A2a adenosine receptor (Homo sapiens (Human))", 6.77],
  ["Cc1c(-c2cc(F)ccc2F)nc(N)c2nc(Cc3ccc(F)cn3)nn12 [Example 4.4]", "human A2a adenosine receptor (Homo sapiens (Human))", 7.64],
  ["Cc1c(-c2ncco2)nc(N)n2nc(CCN3CCc4c(cnn4C4CCCC4)C3)nc12 [Example 17.12]", "human A2a adenosine receptor (Homo sapiens (Human))", 8.92]
]}

A. Nc1nc(-c2ncco2)cc2nc(CCN3CCc4nccnc4C3)nn12 [Example 17.25]
B. Cc1c(-c2cccc(F)c2)nc(N)n2nc(CNCc3ccc(C(F)(F)F)cc3)nc12 [Example 10.5]
Hi, I'm comparing two records. Which one has the lower pIC50, A or B ? API: response body contains the label of the selected item.
A
(A: 6.40, B: 6.79)
